- System: CP269
- PROTOCOL_DESCRIPTION: qHTS profiling for inhibitors of Plasmodium falciparum proliferation (AID 504749); also: nearly all actives have a fitted effect of over 60% in size
- STUDY_CONDITIONS: P. falciparum in erythrocytes, SYBR Green DNA, 72 h; series mostly up to 28.7 µM
Inconclusive results are not listed. The source made the active and inactive calls. Calls follow the shape of the dose curve; as a rule, active = well fitted inhibition curve with a large enough effect; inconclusive = small, poorly fitted or top-dose-only effect; inactive = flat fitted curve, though single readings scatter.
Possible outcomes: true (1) = active, false (0) = inactive

Cc1cc(N)c2cc(NC(=O)Nc3ccc4nc(C)cc(N)c4c3)ccc2n1
true (1)
CCOc1ccc(Cc2nccc3cc(OCC)c(OCC)cc23)cc1OCC
false (0)
Oc1c(I)cc(Cl)c2cccnc12
false (0)
CCN(CC)CCNC(=O)COc1ccc(Cl)cc1
false (0)
OCc1ccccc1O
false (0)
CC(=O)Oc1ccc(C(=C2CCCCC2)c2ccc(OC(C)=O)cc2)cc1
false (0)
COc1cccc(CCc2ccccc2OCC(CN(C)C)OC(=O)CCC(=O)O)c1 (configuration not stated)
true (1)

Reference source for all entries: PubChem BioAssay (NCATS)
